The reported measurements were obtained from ChEMBL document CHEMBL1201862.

Tested on: RPMI-8226
Assay: NCI tumour cell line growth inhibition, 48 h
Activity calls are given as the source filed them. No stated cut-off is given here; in the data, active = GI50 up to about 1.1 µM and inactive = higher.
Possible outcomes: yes (1) = active, no (0) = inactive

{"compound": "O=C1Nc2ccccc2Nc2nc3cccccc-3c21", "measurementTarget": "RPMI-8226", "class": "no (0)"}
{"compound": "CN(C)CCNC(=O)c1ccc(NCCCN(C)CCCNc2ccc3c(=O)n(CCN(C)C)c(=O)n4c5ccccc5c(=O)c2c34)c2c(O)c3ccccc3nc12", "measurementTarget": "RPMI-8226", "class": "yes (1)"}
{"compound": "C=CC[C@H](C)CCC(=O)N1[C@H]2CC3CC[C@@]2(CS1(=O)=O)C3(C)C", "measurementTarget": "RPMI-8226", "class": "no (0)"}
{"compound": "COc1cc(CC(C(=O)O)C(=O)O)c(OC)cc1CC(C(=O)O)C(=O)O", "measurementTarget": "RPMI-8226", "class": "no (0)"}
{"compound": "Cc1cc2c(cc1CO)N1Cc3cc(C)c(CO)cc3N(C2)C1", "measurementTarget": "RPMI-8226", "class": "no (0)"}
{"compound": "COc1ccc(C[C@H]2COC(=O)[C@@H]2Cc2ccc(O)cc2)cc1OC", "measurementTarget": "RPMI-8226", "class": "no (0)"}
{"compound": "CC(=O)O[C@H]1C(=O)[C@@]2(C)[C@H]([C@H](OC(=O)c3ccccc3)[C@]3(O)C[C@H](OC(=O)[C@H](O)[C@@H](NC(=O)c4ccccc4)c4cccc(N(C)C)c4)C(C)=C1C3(C)C)[C@]1(OC(C)=O)CO[C@@H]1C[C@@H]2O", "measurementTarget": "RPMI-8226", "class": "yes (1)"}
{"compound": "CCNC(=O)COc1ccc(Br)cc1Br", "measurementTarget": "RPMI-8226", "class": "no (0)"}
{"compound": "CC(=O)C1C(=O)C(=O)N(c2ccccc2N2C(=O)C(=O)C(C(C)=O)C2=O)C1=O (centres undefined)", "measurementTarget": "RPMI-8226", "class": "no (0)"}
{"compound": "CC1(C)N=C2C(=O)c3c([nH]c4ccccc34)[C@]3(C)CCC1CC23 (some centres undefined)", "measurementTarget": "RPMI-8226", "class": "no (0)"}
{"compound": "C=C(c1ccccc1)c1ccccc1-c1cc(-c2ccccc2)cc(-c2ccccc2)n1", "measurementTarget": "RPMI-8226", "class": "no (0)"}
{"compound": "COc1ccc(/C=C2/CCCC/C2=N/O)cc1", "measurementTarget": "RPMI-8226", "class": "no (0)"}
{"compound": "Nc1ccc(C(=O)O)cc1", "measurementTarget": "RPMI-8226", "class": "no (0)"}
{"compound": "CC1=C(C(=O)NNC(=O)c2ccccc2O)CC(C(=O)NNC(=O)c2ccccc2O)=C(C)N1", "measurementTarget": "RPMI-8226", "class": "yes (1)"}
{"compound": "C/C(CC(O)(/C=N/O)c1ccccc1)=N/O (centres undefined)", "measurementTarget": "RPMI-8226", "class": "no (0)"}
{"compound": "COC(=O)C(Cc1ccccc1)OC(=O)C(N)CC(=O)O (centres undefined)", "measurementTarget": "RPMI-8226", "class": "no (0)"}
{"compound": "Cc1cccc(C)c1N1C(=O)C(=O)C(c2nc3ccccc3s2)/C(=N/c2cccc3c(=O)[nH][nH]c(=O)c23)C1=O (centres undefined)", "measurementTarget": "RPMI-8226", "class": "no (0)"}
{"compound": "CON(C)c1nc(N)c(C#N)c(C#N)c1C#N", "measurementTarget": "RPMI-8226", "class": "no (0)"}
{"compound": "CCCCCCCCCCCCCC(=O)OC1CC(=O)OC1CO (centres undefined)", "measurementTarget": "RPMI-8226", "class": "no (0)"}
{"compound": "O=[N+]([O-])/C(C(Cl)=C(Cl)Cl)=C1\\Nc2ccccc2O1", "measurementTarget": "RPMI-8226", "class": "no (0)"}
{"compound": "CC1(C)O[C@@H](CP(c2ccccc2)c2ccccc2)[C@H](CP(c2ccccc2)c2ccccc2)O1", "measurementTarget": "RPMI-8226", "class": "no (0)"}
{"compound": "CN(C)C1(N(C)C)Oc2c(c(=O)n(C)c(=O)n2C)C(c2ccccc2Br)C1(F)F (centres undefined)", "measurementTarget": "RPMI-8226", "class": "no (0)"}
{"compound": "COc1ccc(NC(=S)N/N=C(\\c2ccccc2)c2ccccn2)cc1", "measurementTarget": "RPMI-8226", "class": "yes (1)"}
{"compound": "NC(Cc1c[nH]c2ccc([N+](=O)[O-])cc12)C(=O)O (centres undefined)", "measurementTarget": "RPMI-8226", "class": "no (0)"}
{"compound": "CCCCCCc1cc(C(=O)Nc2cccc(C(F)(F)F)c2)nc(N)n1", "measurementTarget": "RPMI-8226", "class": "no (0)"}
{"compound": "CC1=CC(=O)CC(C)(C)C1/C=C/C(C)=C/C=C/C(C)=C/C=C/C=C(C)/C=C/C=C(C)/C=C/C1C(C)=CC(=O)CC1(C)C (centres undefined)", "measurementTarget": "RPMI-8226", "class": "no (0)"}
{"compound": "Cc1ccc(NC(=O)C(=O)C(C#N)c2nc(-c3ccc(-c4ccccc4)cc3)cs2)c(C)c1 (centres undefined)", "measurementTarget": "RPMI-8226", "class": "no (0)"}
{"compound": "O=C1C(C(O)(C(F)(F)Cl)C(F)(F)Cl)CCC1C(O)(C(F)(F)Cl)C(F)(F)Cl (centres undefined)", "measurementTarget": "RPMI-8226", "class": "no (0)"}
{"compound": "S=C(N/N=C(/c1ccccc1)c1ccccn1)Nc1ccc(Cl)cc1", "measurementTarget": "RPMI-8226", "class": "yes (1)"}
